- test_system: Cytochrome P450 2D6 (Homo sapiens) (UniProt P10635)
- Sequence (P10635 whole entry, looked up): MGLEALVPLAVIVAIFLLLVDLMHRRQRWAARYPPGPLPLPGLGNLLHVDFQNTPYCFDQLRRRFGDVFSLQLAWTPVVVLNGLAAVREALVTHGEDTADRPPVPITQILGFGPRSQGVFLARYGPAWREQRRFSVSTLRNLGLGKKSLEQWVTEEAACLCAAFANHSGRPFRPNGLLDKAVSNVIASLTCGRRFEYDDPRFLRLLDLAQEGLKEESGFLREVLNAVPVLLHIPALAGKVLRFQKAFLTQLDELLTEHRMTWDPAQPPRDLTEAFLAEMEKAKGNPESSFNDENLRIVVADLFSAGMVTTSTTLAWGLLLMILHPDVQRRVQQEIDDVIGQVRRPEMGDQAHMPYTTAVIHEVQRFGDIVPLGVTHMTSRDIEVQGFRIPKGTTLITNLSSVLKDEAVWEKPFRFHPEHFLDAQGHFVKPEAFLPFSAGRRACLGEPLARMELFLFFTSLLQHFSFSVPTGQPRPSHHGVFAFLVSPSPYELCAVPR
- test_description: Cytochrome panel assay with activity outcomes
- experimental_context: recombinant CYP, pro-luciferin dealkylation, luminescence, p450-cyp2d6; series mostly up to 57.1 µM
In all, about 16,000 compounds went through this assay and about 2,600 (16%) were called active. About 20% were inconclusive and are not listed. The call rests on the fitted dose curve; in most records, active means well fitted curve in the direction sought with a large enough effect; inconclusive means small, poorly fitted or top-dose-only effect, or effect the other way; inactive means no such curve, though single readings can be large or run the other way. A selection follows.
Field 'call' accepts active, inactive

Known results for molecules:
INSERT INTO results (molecule, class_label) VALUES
  ('Cn1c(C(=O)N2COCC2(C)C)cc2c(=O)n3ccccc3nc21', 'inactive'),
  ('COc1cc(/C=C\c2ccc(OC)cc2OC)cc(OC)c1', 'inactive'),
  ('O=c1c(C=Nc2cccc(C(F)(F)F)c2)c[nH]n1-c1cccc(Cl)n1', 'inactive'),
  ('COc1cc(S(C)=O)ccc1-c1nc2ncccc2[nH]1 (stereo unspecified)', 'inactive'),
  ('CCCc1nn(-c2ccccc2)c2c1C(c1cccs1)C(C#N)=C(N)O2 (stereo unspecified)', 'inactive');

Kindly review the next molecule as well.
stdin: Given O=C1OCCC1Sc1nnc(-c2ccc(O)cc2)o1 (stereo unspecified) , state the outcome it received in this test.
stdout: inactive

###

- test_system: Cytochrome P450 2D6 (Homo sapiens)
- test_description: Cytochrome panel assay with activity outcomes
- experimental_context: recombinant CYP, pro-luciferin dealkylation, luminescence, p450-cyp2d6; series mostly up to 57.1 µM
In all, about 16,000 compounds went through this assay and about 2,600 (16%) were called active. Not shown: some 20% with an inconclusive outcome. The call rests on the fitted dose curve; in most records, active means well fitted curve in the direction sought with a large enough effect; inconclusive means small, poorly fitted or top-dose-only effect, or effect the other way; inactive means no such curve, though single readings can be large or run the other way. A selection follows.
Field 'call' accepts active, inactive

Known results for molecules:
INSERT INTO assay_data (molecule, class_label) VALUES
  ('COC(=O)[C@@]1(Cc2ccccc2)[C@H]2c3cc(C(=O)N4CCCC4)n(Cc4c(CO)[nH]cc(C)c4=O)c3C[C@H]2CN1C(=O)c1ccccc1', 'active'),
  ('COC(=O)[C@@]1(Cc2ccc(F)cc2)[C@H]2c3cc(C(=O)N4CCCC4)n(CCc4ccc(O)c(O)c4)c3C[C@H]2CN1C(=O)c1ccccc1', 'active'),
  ('CC(=O)Nc1nnc(SCc2ccc(F)cc2)s1', 'inactive'),
  ('COC(=O)[C@@]1(Cc2ccccc2)[C@H]2c3cc(C(=O)N4CCCC4)n(CC4CC4)c3C[C@H]2CN1C(=O)c1ccccc1', 'inactive'),
  ('N#CCCn1c(=O)c(-c2ccc(F)cc2)nc2cnc(N3CCOCC3)nc21', 'inactive');

stdin: Given N[C@@H](Cc1c[nH]c2ccccc12)C(=O)O , state the outcome it received in this test.
stdout: inactive

stdin: Subsequent entry: Cc1ccc(NC(=O)CN2C(=O)N/C(=C/c3ccc(C)o3)C2=O)cc1
stdout: inactive

###

- test_system: Cytochrome P450 2D6 (Homo sapiens)
- test_description: Cytochrome panel assay with activity outcomes; on activity, negative = inhibition: on the % scale 0 is the no-effect control and ±100 the full control effect
- experimental_context: recombinant CYP, pro-luciferin dealkylation, luminescence, p450-cyp2d6; series mostly up to 57.1 µM
Out of some 16,000 compounds screened, about 2,600 (16%) were called active. Not shown: some 20% with an inconclusive outcome. Only a sample is shown.
Exercise: for every item that follows, state its recorded activity, negative = inhibition.

INSERT INTO results (smiles_entry, experimental_result) VALUES
  ('CC(C)C(=O)C(C)(C)CCc1ccccn1', '8.85% [at 11.4 µM] (inactive)');

Items follow; give activity, negative = inhibition for each.
1. NS(=O)(=O)c1ccc(N=Nc2cc3ccccc3c(C(=O)O)c2O)cc1
2. NC([N-]/N=C/c1ccccn1)=[S]=[Fe].O=S(=O)(O)O
3. CNC[C@@H](SC)c1ccc(O)c(O)c1
4. Cc1cc2c(cc1C)NC1=C(N2)O[C@H](c2c[nH]c3ccc(COc4ccccc4)cc23)C1=O
5. N[C@@H](CSCc1ccc(I)cc1)C(=O)O

stdout:
4.38% [at 11.4 µM] (inactive)
8.09% [at 11.4 µM] (inactive)
2.56% [at 11.4 µM] (inactive)
-9.09% [at 11.4 µM] (inactive)
3.9% [at 11.4 µM] (inactive)

###

- test_system: Cytochrome P450 2D6 (Homo sapiens)
- test_description: Cytochrome panel assay with activity outcomes
- experimental_context: recombinant CYP, pro-luciferin dealkylation, luminescence, p450-cyp2d6; series mostly up to 57.1 µM
Out of some 16,000 compounds screened, about 2,600 (16%) were called active. About 20% were inconclusive and are not listed. Calls follow the shape of the dose curve; as a rule, active = well fitted curve in the direction sought with a large enough effect; inconclusive = small, poorly fitted or top-dose-only effect, or effect the other way; inactive = no such curve, though single readings can be large or run the other way. These entries were drawn from the full list. Peptide text beside a SMILES is read from it.
Field 'call' accepts active, inactive

stdin: Given CCOc1cc(C)ccc1OCc1nnc(SCC(=O)c2cccc([N+](=O)[O-])c2)n1CC , state the outcome it received in this test.
stdout: inactive

stdin: Subsequent entry: CCc1cc2c(nc1CC)CCN(CC/C(C)=N/O[C@@H](C)CN1CCCc3nc(C)c(C)cc31)C2
stdout: active

stdin: Subsequent entry: CCOC(=O)c1c(C)nc2sc3c(=O)n(-c4ccc(OC)cc4)nnc3c2c1-c1ccc(OC)cc1
stdout: inactive

stdin: Subsequent entry: N#Cc1cccc(NC(=O)N2CCCC3(CCN(C(=O)c4cc(C(F)(F)F)cc(C(F)(F)F)c4)CC3)C2)c1
stdout: inactive

stdin: Subsequent entry: CN1CCN(C2=Cc3ccccc3Oc3ccc(Cl)cc32)CC1
stdout: active

stdin: Subsequent entry: Cc1ccc(Cl)cc1N1CCN(S(=O)(=O)c2ccc3c(c2)OCCO3)CC1
stdout: inactive

stdin: Subsequent entry: CC(C)=CC(=O)Nc1nnc(C(C)C)s1
stdout: inactive

stdin: Subsequent entry: COC(=O)C/C=C\[C@@H](C)[C@@H](/C=N\O[C@@H](C)CN1CCCc2nc(C)c(C)cc21)NS(=O)(=O)c1ccc(C)cc1
stdout: active

stdin: Subsequent entry: CC(=O)N[C@@H](CC(=O)O)C(=O)N[C@@H](CCC(=O)O)C(=O)O (Ac-Asp-Glu-OH)
stdout: inactive

###

- test_system: Cytochrome P450 2D6 (Homo sapiens) (UniProt P10635)
- test_description: Cytochrome panel assay with activity outcomes; on activity, negative = inhibition: on the % scale 0 is the no-effect control and ±100 the full control effect
- experimental_context: recombinant CYP, pro-luciferin dealkylation, luminescence, p450-cyp2d6; series mostly up to 57.1 µM
- Description: The P450 gene superfamily is involved in the metabolism and clearance of xenobiotics. This assay used various human CYP P450 isozymes to measure the dealkylation of various pro-luciferin substrates to luciferin. The luciferin is then measured by luminescence after the addition of a luciferase detection reagent. […] Inhibitors and some substrates limit the production of luciferin, and decrease measured luminescence. […] 8, Detection, 1 sec, ViewLux luminescent read […]
Screen size: about 16,000 compounds; about 2,600 (16%) were called active. Roughly 20% stayed inconclusive and do not appear here. The list is a sample of the results.
recorded_endpoint: activity, negative = inhibition

INSERT INTO assay_data (smiles_entry, test_system, recorded_endpoint, experimental_result) VALUES
  ('O=C(O)/C=C\C(=O)Nc1ccc2c(c1)C(=O)c1cc(F)ccc1-2', 'Cytochrome P450 2D6 (Homo sapiens) (UniProt P10635)', 'activity, negative = inhibition', '-18.3% [at 11.4 µM] (inactive)');

Items follow; give activity, negative = inhibition for each.
1. O=C1[C@H]2O[C@@H]2[C@@H](O)[C@H]2[C@H]1CCn1c(=O)n(Cc3cc4c(cc3Cl)OCO4)c(=O)n12
2. O=C(O)/C=C\C(=O)Nc1ccc2c(c1)-c1ccccc1C2
3. Cc1ccc(S(=O)(=O)n2c3ccccc3c3nnc(C(=O)c4ccccc4)nc32)cc1
4. COc1ccc(CSC2=C(C#N)C(=O)NC3(CCCCC3)S2)cc1

stdout:
["-11.5% [at 11.4 µM] (inactive)", "8.73% [at 11.4 µM] (inactive)", "-14.9% [at 11.4 µM] (inactive)", "-3.33% [at 11.4 µM] (inactive)"]

###

- test_system: Cytochrome P450 2D6 (Homo sapiens) (UniProt P10635)
- test_description: Cytochrome panel assay with activity outcomes
- experimental_context: recombinant CYP, pro-luciferin dealkylation, luminescence, p450-cyp2d6; series mostly up to 57.1 µM
- Protocol: The P450 gene superfamily is involved in the metabolism and clearance of xenobiotics. This assay used various human CYP P450 isozymes to measure the dealkylation of various pro-luciferin substrates to luciferin. The luciferin is then measured by luminescence after the addition of a luciferase detection reagent. […] Inhibitors and some substrates limit the production of luciferin, and decrease measured luminescence. […] 8, Detection, 1 sec, ViewLux luminescent read […]
The campaign covered roughly 16,000 compounds. About 2,600 (16%) were called active. Not shown: some 20% with an inconclusive outcome. The call rests on the fitted dose curve; in most records, active means well fitted curve in the direction sought with a large enough effect; inconclusive means small, poorly fitted or top-dose-only effect, or effect the other way; inactive means no such curve, though single readings can be large or run the other way. A selection follows.
Field 'call' accepts active, inactive

INSERT INTO measurements (molecule, class_label) VALUES
  ('Cc1onc(-c2ccccc2)c1C(=O)NC(CC(=O)O)c1ccc(OC(C)C)cc1 (configuration not stated)', 'inactive');

stdin: Given Cc1ccccc1/C=C\C1=NCCN1 , state the outcome it received in this test.
stdout: active

stdin: Subsequent entry: COc1ccc2c(CC(=O)NCC3CCC(C(=O)O)CC3)cc(=O)oc2c1 (configuration not stated)
stdout: active

stdin: Subsequent entry: CCc1c(C)sc(NC(=O)OC)c1C(N)=O
stdout: inactive

stdin: Subsequent entry: Cc1ccccc1S(=O)(=O)c1c(C)cc(-c2ccccc2)[nH]c1=O
stdout: inactive

stdin: Subsequent entry: COCCn1c(=O)c(-c2ccc(OC)cc2)nc2cnc(Nc3cccc(OC)c3)nc21
stdout: inactive

stdin: Subsequent entry: CCCCC(=O)Nc1sc2c(c1C(=O)OCC)CCC(C=O)=C2Cl
stdout: inactive

stdin: Subsequent entry: CCCCS(=O)(=O)NC1=NCN(Cc2ccco2)CN1
stdout: inactive

stdin: Subsequent entry: Clc1ccc(Nc2ncn[nH]2)cc1
stdout: inactive

stdin: Subsequent entry: c1ccc2cc(C3=NCCN3)ncc2c1
stdout: inactive

stdin: Subsequent entry: COc1ncc2nc(-c3cc(F)cc(F)c3)c(=O)n(C[C@H]3CCCO3)c2n1
stdout: inactive

stdin: Subsequent entry: c1ccc2nc(C3=NCCN3)cnc2c1
stdout: inactive
